Test system: CAOV3
Experiment: Primary qHTS to identify gynecologic anti-cancer compounds using libraries of approved drugs and bioactive compounds (AID 1345084); further: nearly all actives have a fitted effect of over 55% in size
Conditions: Gynecologic cancer cell panel viability, ATPlite luminescence, 48 h; series mostly up to 57.5 µM
Results filed as inconclusive are left out. Activity calls are given as the source filed them. The call rests on the fitted dose curve; in most records, active means well fitted cell-killing curve with a large enough effect; inconclusive means small, poorly fitted or top-dose-only effect, or effect the other way; inactive means flat fitted curve, though single readings scatter.
Form entry, call: pick from active, inactive

In [3]: df
Out[3]:
                                   compound  assigned_label
0  CC1CCCC(O)CC(=O)c2c(O)cc(O)cc2CC(=O)O1 (centres undefined)        inactive
1  COc1nc2ccc(Br)cc2cc1[C@@H](c1ccccc1)[C@@](O)(CCN(C)C)c1cccc2ccccc12        inactive
2  C=C1C(=O)OC[C@@H]1C/C=C(\C)CC1CC(C)C(=O)O1 (some centres undefined)        inactive

input: Record lookup: outcome of this test for COc1cc(N2CCC(N3CCN(C)CC3)CC2)ccc1Nc1ncc(Cl)c(Nc2ccccc2P(C)(C)=O)n1 ?
output: active

input: Record lookup: outcome of this test for CC(O)C(C)n1ncn(-c2ccc(N3CCN(c4ccc(OCC5COC(Cn6cncn6)(c6ccc(Cl)cc6Cl)O5)cc4)CC3)cc2)c1=O (centres undefined) ?
output: inactive

input: Record lookup: outcome of this test for C=C1CC[C@@H](O)[C@]2(C)CC[C@H]3C(=C)C(=O)O[C@@H]3[C@@H]12 ?
output: inactive

input: Record lookup: outcome of this test for CCCC(Nc1nc(-c2ccc(NC(=O)NCC)c(OC)c2)ncc1C)c1cccnc1 (centres undefined) ?
output: inactive

input: Record lookup: outcome of this test for COC1=CC(=O)C[C@@H](C)[C@@]12Oc1c(Cl)c(OC)cc(OC)c1C2=O ?
output: inactive

input: Record lookup: outcome of this test for OC(c1ccc(-c2ccc(CN3CCN(Cc4ccncc4)CC3)cc2)c(F)c1)(C(F)(F)F)C(F)(F)F ?
output: inactive
